Catalogue of AC50 values
Biological target: UniProtKB P35462
Sequence (P35462 whole entry): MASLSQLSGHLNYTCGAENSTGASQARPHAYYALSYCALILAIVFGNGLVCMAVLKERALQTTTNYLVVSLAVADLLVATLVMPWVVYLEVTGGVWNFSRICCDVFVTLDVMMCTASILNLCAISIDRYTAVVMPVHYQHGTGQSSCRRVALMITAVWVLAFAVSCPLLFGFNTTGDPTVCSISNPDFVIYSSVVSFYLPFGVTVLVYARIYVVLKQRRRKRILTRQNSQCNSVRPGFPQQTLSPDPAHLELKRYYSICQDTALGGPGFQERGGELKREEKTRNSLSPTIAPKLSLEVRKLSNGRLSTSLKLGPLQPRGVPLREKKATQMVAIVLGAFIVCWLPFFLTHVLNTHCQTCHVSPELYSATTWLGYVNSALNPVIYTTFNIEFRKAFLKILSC

NNCCc1ccccc1 = > 30 µM
Cc1oc(=O)oc1COC(=O)[C@@H]1N2C(=O)[C@@H](NC(=O)[C@H](N)c3ccccc3)[C@H]2SC1(C)C = > 30 µM
COC(=O)[C@@H](N)Cc1ccc(O)c(O)c1 = > 30 µM

Lookup: Give the measured AC50 of CC(=O)O[C@]1(C(C)=O)CC[C@H]2[C@@H]3C=C(Cl)C4=CC(=O)[C@@H]5C[C@@H]5[C@]4(C)[C@H]3CC[C@@]21C [CYPROTERONE ACETATE] .
Found: > 30 µM

Lookup: State the recorded AC50 for this entry: COc1ccc(OC)c(C(O)C(C)N)c1 (stereo not drawn)
Found: > 30 µM

Lookup: Param item = CCCCC(CC)CN1CN(CC(CC)CCCC)CC(C)(N)C1 (stereo not drawn) ; retrieve measured AC50.
Found: 4.84 µM

Lookup: Item C[C@H]1CN(C[C@H](Cc2ccccc2)C(=O)NCC(=O)O)CC[C@@]1(C)c1cccc(O)c1 has what recorded AC50?
Found: > 30 µM

Lookup: Dear colleague, I am looking for the recorded AC50 of the following compound: CC(C)C[C@H](NC(=O)[C@@H](O)[C@H](N)Cc1ccccc1)C(=O)O
Found: > 30 µM

Lookup: Quick one: AC50 of O=S1(=O)CCN(CN2CCS(=O)(=O)NC2)CN1 ?
Found: > 30 µM

Lookup: Look up AC50 for this compound: C[C@@H]1C[C@H]2[C@@H]3C[C@H](F)C4=CC(=O)C=C[C@]4(C)[C@@]3(F)[C@@H](O)C[C@]2(C)[C@@]1(OC(=O)c1ccco1)C(=O)SCF [FLUTICASONE FUROATE]
Found: > 30 µM

Lookup: Entry Cc1cc(=O)oc2cc(O)ccc12 : reported AC50 = ?
Found: > 30 µM

Lookup: Entry CN1CCCN(C(c2ccccc2)c2ccc(Cl)cc2)CC1 (stereo not drawn) has what AC50?
Found: 0.0721 µM

Lookup: What value of AC50 has been reported for the following compound? CCCn1cnc2c1c(=O)n(CCCCC(C)=O)c(=O)n2C
Found: > 30 µM
